Exercise: state measured ACAT inhibitory activity for each of the molecules provided.
System: acyl CoA:cholesterol acyltransferase (ACAT)
experiment_summary: Assay for ACAT inhibitory activity using hepatic microsomes, cholesterol and 14C-labeled oleoyl-CoA
Type: biochemical
condition_summary: concentration 20 μg/ml
One number for each entry, in %.

Example entries begin here.
INSERT INTO measurements (molecule, val) VALUES
  ('CC(C)c1cccc(C(C)C)c1OC(=O)NS(=O)(=O)Oc1c(C(C)C)cccc1C(C)C', 84.5),
  ('CCCCCCCNC(=O)CCCCSC1NC(c2ccccc2)C(c2ccccc2)N1 (centres unmarked)', 84.8),
  ('O=C(/C=C/C=C/c1ccc2c(c1)OCO2)N1CCCCC1', 17.6),
  ('Cc1cc(Cc2cc(C)cc(C(C)(C)C)c2O)c(O)c(C(C)(C)C)c1', 93.4);

As a next step, examine the molecule that follows.
Task: Please give the measured ACAT inhibitory activity for this molecule: CCCCCCCC/C=C\CCCCCCCC(=O)Nc1c(OC)cc(OC)cc1OC
Output: 96.6

Data provenance: patent US20090182014A1
